test_description: in vivo
assay_conditions: male, ICR, mouse, in vivo, ip, 5 mg/kg
observable: AUC(0-inf)

Tell me the measured AUC(0-inf) of COc1cc(CNC(=O)CCCC/C=C/C(C)C)ccc1O , please.
66.8 ng·h/mL

Tell me the measured AUC(0-inf) of CCCCC[C@H](O)CC(=O)CCc1ccc(O)c(OC)c1 [[6]-Gingerol] , please.
66.3 ng·h/mL

====

test_description: in vivo
assay_conditions: male, ICR, mouse, in vivo, iv, 1 mg/kg, Doxorubicin Kp values
observable: Kp

Tell me the measured Kp of COc1cccc2c1C(=O)c1c(O)c3c(c(O)c1C2=O)C[C@@](O)(C(=O)CO)C[C@@H]3O[C@H]1C[C@H](N)[C@H](O)[C@H](C)O1 [Doxorubicin] , please.
> 35.4

====

test_description: in vivo
assay_conditions: male, ICR, mouse, in vivo, ip, 10 mg/kg
observable: Tmax (min)
Unit min implied. Number only.

Tell me the measured Tmax of O=C(/C=C/C=C/c1ccc2c(c1)OCO2)N1CCCCC1 , please.
45

====

test_description: in vivo
assay_conditions: male, ICR, mouse, in vivo, ip, 5 mg/kg
observable: CL/F
Just so you know, I need the unit written after the number.

Tell me the measured CL/F of COc1cc(CNC(=O)CCCC/C=C/C(C)C)ccc1O [Capsaicin] , please.
1250 mL/min/kg

Tell me the measured CL/F of CCCCC[C@H](O)CC(=O)CCc1ccc(O)c(OC)c1 [[6]-Gingerol] , please.
1260 mL/min/kg

====

test_description: Plasma pharmacokinetics of doxorubicin i.v. in mice pretreated with phytochemical P-gp modulators
assay_conditions: male, ICR, mouse, in vivo, iv, 1 mg/kg, C0 of doxorubicin, i.v. 1 mg/kg, pretreatment Capsaicin
observable: C0 (ng/mL)
Unit ng/mL implied. Number only.

Tell me the measured C0 of COc1cccc2c1C(=O)c1c(O)c3c(c(O)c1C2=O)C[C@@](O)(C(=O)CO)C[C@@H]3O[C@H]1C[C@H](N)[C@H](O)[C@H](C)O1 , please.
4430

====

test_description: in vivo
assay_conditions: male, ICR, mouse, in vivo, ip, 10 mg/kg
observable: half-life (h)
Unit h implied. Number only.

Tell me the measured half-life of O=C(/C=C/C=C/c1ccc2c(c1)OCO2)N1CCCCC1 , please.
6.3

====

test_description: Plasma pharmacokinetics of doxorubicin i.v. in mice pretreated with phytochemical P-gp modulators
assay_conditions: male, ICR, mouse, in vivo, iv, 1 mg/kg, CL of doxorubicin, i.v. 1 mg/kg, pretreatment Piperine
observable: clearance (mL/min/kg)
Unit mL/min/kg implied. Number only.

Tell me the measured clearance of COc1cccc2c1C(=O)c1c(O)c3c(c(O)c1C2=O)C[C@@](O)(C(=O)CO)C[C@@H]3O[C@H]1C[C@H](N)[C@H](O)[C@H](C)O1 , please.
25.6

====

test_description: Tissue distribution of phytochemicals after intraperitoneal administration
assay_conditions: male, ICR, mouse, in vivo, ip, 10 mg/kg
observable: Kp at 2 h
Enter a number only.

Tell me the measured Kp at 2 h of O=C(/C=C/C=C/c1ccc2c(c1)OCO2)N1CCCCC1 [Piperine] , please.
1.69

====

test_description: Plasma pharmacokinetics of doxorubicin i.v. in mice pretreated with phytochemical P-gp modulators
assay_conditions: male, ICR, mouse, in vivo, iv, 1 mg/kg, C0 of doxorubicin, i.v. 1 mg/kg, pretreatment Piperine
observable: C0 (ng/mL)
Unit ng/mL implied. Number only.

Tell me the measured C0 of COc1cccc2c1C(=O)c1c(O)c3c(c(O)c1C2=O)C[C@@](O)(C(=O)CO)C[C@@H]3O[C@H]1C[C@H](N)[C@H](O)[C@H](C)O1 , please.
3400

====

test_description: Plasma pharmacokinetics of doxorubicin i.v. in mice pretreated with phytochemical P-gp modulators
assay_conditions: male, ICR, mouse, in vivo, iv, 1 mg/kg, t1/2 of doxorubicin, i.v. 1 mg/kg, pretreatment Control
observable: half-life (h)
Unit h implied. Number only.

Tell me the measured half-life of COc1cccc2c1C(=O)c1c(O)c3c(c(O)c1C2=O)C[C@@](O)(C(=O)CO)C[C@@H]3O[C@H]1C[C@H](N)[C@H](O)[C@H](C)O1 , please.
17.4

====

test_description: in vivo
assay_conditions: male, ICR, mouse, in vivo, ip, 10 mg/kg
observable: Vd/F (L/kg)
Unit L/kg implied. Number only.

Tell me the measured Vd/F of O=C(/C=C/C=C/c1ccc2c(c1)OCO2)N1CCCCC1 , please.
9.12

====

test_description: Plasma pharmacokinetics of doxorubicin i.v. in mice pretreated with phytochemical P-gp modulators
assay_conditions: male, ICR, mouse, in vivo, iv, 1 mg/kg, t1/2 of doxorubicin, i.v. 1 mg/kg, pretreatment Piperine
observable: half-life (h)
Unit h implied. Number only.

Tell me the measured half-life of COc1cccc2c1C(=O)c1c(O)c3c(c(O)c1C2=O)C[C@@](O)(C(=O)CO)C[C@@H]3O[C@H]1C[C@H](N)[C@H](O)[C@H](C)O1 , please.
15.7
